Each recorded value in this set is attributed to patent US7847065B2.

Parameter 'readout' = Cytotoxicity(%) ×2 Pep(+); parameter 'system' = T2 cells (HLA-A*0201).
Ends that are not written are not given here.
Note: state the figure and append the unit.

Take a look at these entries with their results.
KLNLTLEGV [RNF43-60, KLNLTLEGV]
−1.6%
LMQSHPLYL [RNF43-82, LMQSHPLYL]
0.0%
GLTWPVVLI [RNF43-156, GLTWPVVLI]
−0.5%

Inquiry: State its Cytotoxicity(%) ×2 Pep(+) on T2 cells (HLA-A*0201): KLMEFVYKN [RNF43-171, KLMEFVYKN]
Reply text: 1.1%

Inquiry: State its Cytotoxicity(%) ×2 Pep(+) on T2 cells (HLA-A*0201): LLGPSRSAV [RNF43-358, LLGPSRSAV]
Reply text: 0.0%

Inquiry: State its Cytotoxicity(%) ×2 Pep(+) on T2 cells (HLA-A*0201): KLMQSHPLYL [RNF43-81, KLMQSHPLYL]
Reply text: 6.3%

Inquiry: State its Cytotoxicity(%) ×2 Pep(+) on T2 cells (HLA-A*0201): WLLMATLQA [RNF43-15, WLLMATLQA]
Reply text: −0.4%

Inquiry: State its Cytotoxicity(%) ×2 Pep(+) on T2 cells (HLA-A*0201): WLHQHRTCPL [RNF43-302, WLHQHRTCPL]
Reply text: 1.5%

Inquiry: State its Cytotoxicity(%) ×2 Pep(+) on T2 cells (HLA-A*0201): YLLGPSRSAV [RNF43-357, YLLGPSRSAV]
Reply text: 3.7%

----------
Parameter 'readout' = Cytotoxicity(%) ×20 Pep(+); parameter 'system' = T2 cells (HLA-A*0201).
Ends that are not written are not given here.
Answer format: numeric, % implied, no suffix.

Take a look at these entries with their results.
KLMQSHPLYL [RNF43-81, KLMQSHPLYL]
18.0
KLNLTLEGV [RNF43-60, KLNLTLEGV]
−2.1

Now consider the entry below.
Inquiry: What does the data say about its Cytotoxicity(%) ×20 Pep(+)? Entry: GLTWPVVLI [RNF43-156, GLTWPVVLI]
Reply text: −0.4

----------
tested on: TISI cells (HLA-A24/24)
Ends that are not written are not given here.
Cytotoxicity of CTL lines (10mer) ×20 Pep(−) reference

Take a look at these entries with their results.
TFCSSLSSDF [RNF43-496, TFCSSLSSDF]
9%
SYCTERSGYL [RNF43-449, SYCTERSGYL]
1%
KMDPTGKLNL [RNF43-54, KMDPTGKLNL]
2%
KLMQSHPLYL [RNF43-81, KLMQSHPLYL]
5%

Now consider the entry below.
Inquiry: What does the data say about its Cytotoxicity of CTL lines (10mer) ×20 Pep(−)? Entry: HYTPSVAYPW [RNF43-683, HYTPSVAYPW]
Reply text: 0%

----------
system: T2 cells (HLA-A*0201)
Ends that are not written are not given here.
attribute_measured: Cytotoxicity(%) ×20 Pep(−)
Answer format: numeric, % implied, no suffix.

WLHQHRTCPL [RNF43-302, WLHQHRTCPL]
6.1

Inquiry: What does the data say about its Cytotoxicity(%) ×20 Pep(−)? Entry: GLTWPVVLI [RNF43-156, GLTWPVVLI]
Reply text: 0.7

Inquiry: What does the data say about its Cytotoxicity(%) ×20 Pep(−)? Entry: LLGPSRSAV [RNF43-358, LLGPSRSAV]
Reply text: −0.7

Inquiry: What does the data say about its Cytotoxicity(%) ×20 Pep(−)? Entry: LMQSHPLYL [RNF43-82, LMQSHPLYL]
Reply text: 1.2

Inquiry: What does the data say about its Cytotoxicity(%) ×20 Pep(−)? Entry: KLMQSHPLYL [RNF43-81, KLMQSHPLYL]
Reply text: 27.6

----------
Ends that are not written are not given here.
Parameter 'readout' = Cytotoxicity of CTL lines (10mer) ×2 Pep(−); parameter 'system' = TISI cells (HLA-A24/24).
Answer format: numeric, % implied, no suffix.

Take a look at these entries with their results.
TFCSSLSSDF [RNF43-496, TFCSSLSSDF]
0
KMDPTGKLNL [RNF43-54, KMDPTGKLNL]
−1
HYTPSVAYPW [RNF43-683, HYTPSVAYPW]
−1
KLMQSHPLYL [RNF43-81, KLMQSHPLYL]
−3

Now consider the entry below.
Inquiry: What does the data say about its Cytotoxicity of CTL lines (10mer) ×2 Pep(−)? Entry: SYCTERSGYL [RNF43-449, SYCTERSGYL]
Reply text: 0

----------
test system: SNU475; experiment: Cytotoxicity of CTLs against tumor cell line SNU475; type: cell-based, human; conditions: SNU475 expresses CXADRL1, GCUD1 and HLA-A*0201
Ends that are not written are not given here.
attribute_measured: Cytotoxic activity of peptide-induced CTLs against SNU475

KMDAEHPEV [GCUD1-9V, KMDAEHPEV]
killed
ALSSGLYQV [CXADRL1-9V, ALSSGLYQV]
killed

----------
Cytotoxicity of CTL lines (9mer) ×20 Pep(+) reference
test system: TISI cells (HLA-A24/24)
Ends that are not written are not given here.
Note: state the figure and append the unit.

Inquiry: What does the data say about its Cytotoxicity of CTL lines (9mer) ×20 Pep(+)? Entry: RYQASCRQA [RNF43-247, RYQASCRQA]
Reply text: 71%

Inquiry: What does the data say about its Cytotoxicity of CTL lines (9mer) ×20 Pep(+)? Entry: RAPGEQQRL [RNF43-397, RAPGEQQRL]
Reply text: 41%

----------
system: T2 cells (HLA-A*0201)
Ends that are not written are not given here.
attribute_measured: Cytotoxicity(%) ×2 Pep(−)
Answer format: numeric, % implied, no suffix.

Take a look at these entries with their results.
YLLGPSRSAV [RNF43-357, YLLGPSRSAV]
3.0
LMQSHPLYL [RNF43-82, LMQSHPLYL]
−0.4
WLLMATLQA [RNF43-15, WLLMATLQA]
−0.9
KLMEFVYKN [RNF43-171, KLMEFVYKN]
−0.5
KLNLTLEGV [RNF43-60, KLNLTLEGV]
0.0
GLTWPVVLI [RNF43-156, GLTWPVVLI]
−0.3
WLHQHRTCPL [RNF43-302, WLHQHRTCPL]
2.2
KLMQSHPLYL [RNF43-81, KLMQSHPLYL]
8.3

Inquiry: State its Cytotoxicity(%) ×2 Pep(−) on T2 cells (HLA-A*0201): LLGPSRSAV [RNF43-358, LLGPSRSAV]
Reply text: −0.8

----------
tested on: TISI cells (HLA-A24/24)
Ends that are not written are not given here.
If the reported Cytotoxicity of CTL lines (10mer) ×20 Pep(+) equals or exceeds 5%, assign yes. If not, assign no.

TFCSSLSSDF [RNF43-496, TFCSSLSSDF]
yes
SYCTERSGYL [RNF43-449, SYCTERSGYL]
no

Inquiry: Could you tell me if the measured Cytotoxicity of CTL lines (10mer) ×20 Pep(+) of KLMQSHPLYL [RNF43-81, KLMQSHPLYL] reaches 5% or more?
Reply text: yes

Inquiry: Could you tell me if the measured Cytotoxicity of CTL lines (10mer) ×20 Pep(+) of HYTPSVAYPW [RNF43-683, HYTPSVAYPW] reaches 5% or more?
Reply text: no

----------
Parameter 'readout' = Cytotoxicity of CTL lines (10mer) ×2 Pep(+); parameter 'system' = TISI cells (HLA-A24/24).
Ends that are not written are not given here.
Answer format: numeric, % implied, no suffix.

Take a look at these entries with their results.
KLMQSHPLYL [RNF43-81, KLMQSHPLYL]
2
TFCSSLSSDF [RNF43-496, TFCSSLSSDF]
0
HYTPSVAYPW [RNF43-683, HYTPSVAYPW]
0

Inquiry: State its Cytotoxicity of CTL lines (10mer) ×2 Pep(+) on TISI cells (HLA-A24/24): SYCTERSGYL [RNF43-449, SYCTERSGYL]
Reply text: 0

Inquiry: State its Cytotoxicity of CTL lines (10mer) ×2 Pep(+) on TISI cells (HLA-A24/24): KMDPTGKLNL [RNF43-54, KMDPTGKLNL]
Reply text: 0

----------
tested on: TISI cells (HLA-A24/24)
Ends that are not written are not given here.
Cytotoxicity of CTL lines (9mer) ×2 Pep(+) reference
Answer format: numeric, % implied, no suffix.

Take a look at these entries with their results.
GFGRTGLVL [RNF43-24, GFGRTGLVL]
1
RAPGEQQRL [RNF43-397, RAPGEQQRL]
15
SYQEPGRRL [RNF43-331, SYQEPGRRL]
0

Inquiry: State its Cytotoxicity of CTL lines (9mer) ×2 Pep(+) on TISI cells (HLA-A24/24): RAPRPCLSL [RNF43-114, RAPRPCLSL]
Reply text: 6

Inquiry: State its Cytotoxicity of CTL lines (9mer) ×2 Pep(+) on TISI cells (HLA-A24/24): LFNLQKSSL [RNF43-639, LFNLQKSSL]
Reply text: 7

Inquiry: State its Cytotoxicity of CTL lines (9mer) ×2 Pep(+) on TISI cells (HLA-A24/24): RPPRPGPFL [RNF43-368, RPPRPGPFL]
Reply text: 0

Inquiry: State its Cytotoxicity of CTL lines (9mer) ×2 Pep(+) on TISI cells (HLA-A24/24): RYQASCRQA [RNF43-247, RYQASCRQA]
Reply text: 28

Inquiry: State its Cytotoxicity of CTL lines (9mer) ×2 Pep(+) on TISI cells (HLA-A24/24): NSQPVWLCL [RNF43-721, NSQPVWLCL]
Reply text: 26
